Taken from patent US10478421B1.

Biological target: hsortilin (Homo sapiens, UniProt Q99523)
Sequence (Q99523 78-831): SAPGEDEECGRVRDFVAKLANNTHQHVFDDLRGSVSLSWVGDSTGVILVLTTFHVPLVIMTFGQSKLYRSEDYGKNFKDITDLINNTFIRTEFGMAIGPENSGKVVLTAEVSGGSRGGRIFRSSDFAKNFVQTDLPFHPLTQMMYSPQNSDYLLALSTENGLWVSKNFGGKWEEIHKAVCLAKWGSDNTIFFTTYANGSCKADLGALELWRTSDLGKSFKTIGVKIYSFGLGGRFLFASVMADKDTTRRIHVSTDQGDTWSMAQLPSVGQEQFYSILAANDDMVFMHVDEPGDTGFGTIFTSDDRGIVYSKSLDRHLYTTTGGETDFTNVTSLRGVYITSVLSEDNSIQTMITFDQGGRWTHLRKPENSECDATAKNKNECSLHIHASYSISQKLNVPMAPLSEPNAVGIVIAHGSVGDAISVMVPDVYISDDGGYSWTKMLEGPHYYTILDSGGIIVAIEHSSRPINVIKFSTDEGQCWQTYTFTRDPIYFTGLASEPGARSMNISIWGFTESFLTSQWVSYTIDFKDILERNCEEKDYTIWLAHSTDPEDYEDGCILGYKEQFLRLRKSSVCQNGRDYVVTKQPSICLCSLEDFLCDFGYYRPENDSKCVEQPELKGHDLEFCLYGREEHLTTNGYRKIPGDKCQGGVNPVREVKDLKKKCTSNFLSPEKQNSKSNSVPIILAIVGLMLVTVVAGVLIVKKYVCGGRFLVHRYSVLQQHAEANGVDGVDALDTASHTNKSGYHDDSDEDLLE
Experiment: SPR binding of 541 and 984 to hsortilin (Example 4)
Conditions: low affinity binding site
ENDPOINT: Kd

Tell me the measured Kd of `CN1CCC[C@H]1C(=O)Nc1cccc(NC(=O)CCc2ccccc2)c1` , please.
~200 µM
